tested on: NCI-H23 lung; assay: NCI tumour cell line growth inhibition, 48 h
Measured GI50 values are reported for all entries that follow.

compound=COC(=O)[C@]12CC[C@@H](C)[C@H](C)[C@@H]1C1=CC[C@@H]3[C@@]4(C)C(c5ncon5)=C[C@@](C)(CO)C4=CC[C@@]3(C)[C@]1(C)CC2 metric=GI50 result="2.01 µM"

Briefly, GI50 measured for Cc1c(N2C(=O)/C(=C\c3ccc(O)cc3)N=C2c2ccccc2)c(=O)n(-c2ccccc2)n1C : > 100 µM

GI50 reading for NCCCn1c2c(c3ccc([N+](=O)[O-])cc3c1=O)C(=O)c1cc3c(cc1-2)OCO3 : 0.0228 µM

Memo: COc1cc(/C=C/C(=O)c2c(C)n([O-])c3cc(C)c(C)cc3[n+]2=O)cc(OC)c1OC , reported GI50: 16.2 µM

Documented GI50 of NC(=O)Nc1ccc2ncnc(Nc3ccc(Cl)cc3)c2c1 : 21.6 µM

GET /value?item= Cc1cc[c-]cc1.Fc1c[c-]c(-c2ccccn2)c(F)c1.N#CCC[PH+](CCC#N)c1ccccc1.[Pt+2] &field=GI50 returns 3.45 µM

----------
The molecules listed here are annotated with their GI50.
system: HCC-2998 colon; test: NCI tumour cell line growth inhibition, 48 h

molecule=NC(=O)Nc1ccc2ncnc(Nc3ccc(Cl)cc3)c2c1 metric=GI50 result="33.5 µM"
molecule="CC(=O)OC1CCC2(C)C(CCC3C2CCC2(C)C(C4=CC(=O)OC4)CCC32)C1 (stereo not given)" metric=GI50 result="23.8 µM"

Item O=C1OCC2=C1C(c1cccc(F)c1)c1cc3c(cc1N2CCO)OCCO3 (stereo not given) ; assay system HCC-2998 colon; GI50 reported as 0.768 µM

# CC(=O)OCCC/C(=C\c1ccc2ccccc2c1)[N+](=O)[O-] with HCC-2998 colon: GI50 is 1.73 µM

Noted GI50 for COc1cc(C(=O)/C=C/c2c(-c3ccc(F)cc3)nc3sccn23)cc(OC)c1OC , tested on HCC-2998 colon: 2.03 µM

----------
tested on: KM12 colon; assay: NCI tumour cell line growth inhibition, 48 h
metric: TGI (µM)
Express your answer in µM, writing the number without its unit.

Sample answers from the record:
compound=COC(=O)[C@]12CC[C@@H](C)[C@H](C)[C@@H]1C1=CC[C@@H]3[C@@]4(C)C(c5ncon5)=C[C@@](C)(CO)C4=CC[C@@]3(C)[C@]1(C)CC2 value_units=µM readout_number=3.99
compound=COc1cc(C)c(C(=O)/C=C/c2cc(OC)c(O)c(OC)c2)cc1O value_units=µM readout_number=50
compound=Oc1[nH]c2ccccc2c1N=NC(=S)N1CCCCCC1 value_units=µM readout_number=2.22
compound=COc1cc(C/C=C/c2ccccc2)c(OC)cc1O value_units=µM readout_number=30.7
compound="Cc1cn(C2C=CC(=O)C(C)O2)c(=O)[nH]c1=O (stereo not given)" value_units=µM readout_number=30.1
compound=Oc1c(I)cc(I)cc1CNCCCN(Cc1ccccn1)Cc1ccccn1 value_units=µM readout_number=1.97

Summary for this compound, C=CCC1NCCC2=C1C(S(=O)(=O)c1ccc(C)cc1)c1ccccc12 (stereo not given) : TGI is 22.6

According to the records, this compound CC(C)(C)c1ccc(C(=O)N/N=C/c2ccc(O)cc2O)cc1 displays TGI of 2.48

Provenance of the data: PubChem BioAssay (NCI)
